Value source: ChEMBL document CHEMBL2157961

# Assay procedure: Apparent permeability across basolateral to apical side in MDCK cells at 10 uM
# Assay type: ADME, cell-based, Canis lupus familiaris
# Condition notes: dog
Measured parameter: Papp B→A at 10 µM (nm/s)

- O=C(N[C@H]1C2CC3CC1C[C@](O)(C3)C2)c1cnc(N2CCOCC2)nc1C1CC1: 300

====

# Assay procedure: Lipophilicity, log D of the compound at pH 7.4
# Format: physicochemical
# Condition notes: buffer
Threshold 2: logD strictly smaller gives y, otherwise n.

* CCCOc1nc(N2CCOCC2)ccc1C(=O)N[C@H]1C2CC3CC1C[C@](O)(C3)C2 | n
* Cc1ccc(C(=O)N[C@H]2C3CC4CC2C[C@](O)(C4)C3)c(C2CC2)n1 | y
* CCCSc1nc(C)ncc1C(=O)N[C@H]1C2CC3CC1C[C@](O)(C3)C2 | n
* CCCSc1nc(N2CCOCC2)ncc1C(=O)N[C@H]1C2CC3CC1C[C@](O)(C3)C2 | n
* CCCSc1nc(N2CCOCC2)ccc1C(=O)N[C@H]1C2CC3CC1C[C@](O)(C3)C2 | n
* CCCOc1nc(N2CCOCC2)ncc1C(=O)N[C@H]1C2CC3CC1C[C@](O)(C3)C2 | n
* Cc1ncc(C(=O)N[C@H]2C3CC4CC2C[C@](O)(C4)C3)c(CC(C)C)n1 | y
* Cc1ncc(C(=O)N[C@H]2C3CC4CC2C[C@](O)(C4)C3)c(C(C)(C)C)n1 | y

====

# Assay procedure: Aqueous solubility in phosphate buffer at pH 7.4 after 24 hrs
# Type: physicochemical
Measured parameter: solubility at 24 h (µM)

- O=C(N[C@H]1C2CC3CC1C[C@](O)(C3)C2)c1cnc(N2CCOCC2)nc1C1CC1: 240

====

# Assay procedure: Oral bioavailability in dog at 1 mg/kg
# Assay type: ADME, organism-based, Canis lupus familiaris
# Condition notes: in vivo
Hi, to clarify the labels: MET covers bioavailability from 10% upward, NOT MET covers anything below 10%.

* Cc1ncc(C(=O)N[C@H]2C3CC4CC2C[C@](O)(C4)C3)c(C2CCCC2)n1 | MET
* Cc1ccc(C(=O)N[C@H]2C3CC4CC2C[C@](O)(C4)C3)c(C2CC2)n1 | MET
* CCCSc1nc(C)ccc1C(=O)N[C@H]1C2CC3CC1C[C@](O)(C3)C2 | NOT MET
* CCCSc1nc(C)ncc1C(=O)N[C@H]1C2CC3CC1C[C@](O)(C3)C2 | MET
* O=C(N[C@H]1C2CC3CC1C[C@](O)(C3)C2)c1ccc(N2CCOCC2)nc1C1CC1 | MET
* O=C(N[C@H]1C2CC3CC1C[C@](O)(C3)C2)c1cnc(N2CCOCC2)nc1C1CC1 | MET
* CCCSc1nc(N2CCOCC2)ccc1C(=O)N[C@H]1C2CC3CC1C[C@](O)(C3)C2 | NOT MET

====

# Tested on: Canis familiaris
# Assay procedure: Volume of distribution at steady state in dog at 1 mg/kg, po and iv
# Type: ADME, organism-based, Canis lupus familiaris
# Set-up: dose 1 mg/kg, route oral
# Condition notes: in vivo
Reported values of Vdss for individual entries
Measured parameter: Vdss (L/kg)

* O=C(N[C@H]1C2CC3CC1C[C@](O)(C3)C2)c1cnc(N2CCOCC2)nc1C1CC1 | 0.9
* Cc1ncc(C(=O)N[C@H]2C3CC4CC2C[C@](O)(C4)C3)c(C2CCCC2)n1 | 0.9
* CCCSc1nc(C)ncc1C(=O)N[C@H]1C2CC3CC1C[C@](O)(C3)C2 | 0.3
* CCCSc1nc(N2CCOCC2)ncc1C(=O)N[C@H]1C2CC3CC1C[C@](O)(C3)C2 | 0.7
* O=C(N[C@H]1C2CC3CC1C[C@](O)(C3)C2)c1ccc(N2CCOCC2)nc1C1CC1 | 0.6

====

# Assay procedure: Lipophilicity, log D of the compound at pH 7.4
# Format: physicochemical
# Condition notes: buffer
Measured parameter: logD

* CC(C)(C)c1nc(N2CCOCC2)ncc1C(=O)N[C@H]1C2CC3CC1C[C@](O)(C3)C2 | 2.6
* CCCSc1nc(C)ccc1C(=O)N[C@H]1C2CC3CC1C[C@](O)(C3)C2 | 2.8
* CCCSc1nc(N(C)C)ccc1C(=O)N[C@H]1C2CC3CC1C[C@](O)(C3)C2 | 3.8

====

# Assay procedure: Oral bioavailability in rat
# Format: ADME, organism-based
# Condition notes: in vivo
Measured parameter: bioavailability (%)

• Cc1ncc(C(=O)N[C@H]2C3CC4CC2C[C@](O)(C4)C3)c(C2CCCC2)n1 = 77
• O=C(N[C@H]1C2CC3CC1C[C@](O)(C3)C2)c1cnc(N2CCOCC2)nc1C1CCCC1 = 67
• CCCSc1nc(N2CCOCC2)ncc1C(=O)N[C@H]1C2CC3CC1C[C@](O)(C3)C2 = 83
• Cc1ncc(C(=O)N[C@H]2C3CC4CC2C[C@](O)(C4)C3)c(CC(C)C)n1 = 100
• CCCSc1nc(C)ncc1C(=O)N[C@H]1C2CC3CC1C[C@](O)(C3)C2 = 74
• O=C(N[C@H]1C2CC3CC1C[C@](O)(C3)C2)c1cnc(N2CCOCC2)nc1C1CC1 = 100
